system.name: Brain/CB1 (Mus musculus)
Sequence (P47746 whole entry): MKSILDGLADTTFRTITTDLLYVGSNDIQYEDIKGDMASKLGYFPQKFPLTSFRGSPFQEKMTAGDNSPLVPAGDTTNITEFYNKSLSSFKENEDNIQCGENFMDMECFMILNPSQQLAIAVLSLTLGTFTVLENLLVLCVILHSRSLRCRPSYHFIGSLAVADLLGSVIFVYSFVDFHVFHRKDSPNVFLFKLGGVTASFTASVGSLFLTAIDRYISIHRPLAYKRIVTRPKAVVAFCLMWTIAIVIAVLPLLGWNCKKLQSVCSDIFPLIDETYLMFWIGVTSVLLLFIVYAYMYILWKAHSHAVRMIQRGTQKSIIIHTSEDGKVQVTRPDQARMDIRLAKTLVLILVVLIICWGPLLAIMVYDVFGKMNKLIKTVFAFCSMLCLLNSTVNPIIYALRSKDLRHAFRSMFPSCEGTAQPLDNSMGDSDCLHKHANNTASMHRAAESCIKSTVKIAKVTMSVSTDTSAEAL
method.summary: Functional GTPγS binding, Brain/CB1
recorded.metric: IC50 (nM)

Example entries begin here.
[[record]]
compound = "COC(=O)CN/C(=N/S(=O)(=O)c1ccc(C(F)(F)F)cc1)N1CCC(c2ccccc2)C(c2ccc(Cl)cc2)=N1 (stereo not drawn) [Compound 23]"
recorded_metric = "IC50"
recorded_value = 8.1

[[record]]
compound = "N/C(=N\\C(=N\\S(=O)(=O)c1ccc(C(F)(F)F)cc1)N1CCC(c2ccccc2)C(c2ccc(Br)cc2)=N1)c1ccc(F)cc1F (stereo not drawn) [Compound 10za]"
recorded_metric = "IC50"
recorded_value = 26

[[record]]
compound = "N#Cc1ccc(S(=O)(=O)/N=C(/N=C2\\CCCCN2)N2CCC(c3ccccc3)C(c3ccc(Cl)cc3)=N2)cc1 (stereo not drawn) [Compound 13b]"
recorded_metric = "IC50"
recorded_value = 325

[[record]]
compound = "N/C(=N\\C(=N\\S(=O)(=O)c1ccc(C(F)(F)F)cc1)N1CCC(c2ccccc2)C(c2ccc(Br)cc2)=N1)c1ccccc1F (stereo not drawn) [Compound 10z]"
recorded_metric = "IC50"
recorded_value = 49

[[record]]
compound = "CCC(N/C(=N/S(=O)(=O)c1ccc(C(F)(F)F)cc1)N1CCC(c2ccccc2)C(c2ccc(Cl)cc2)=N1)C(N)=O (single isomer, unassigned) [Compound 32b]"
recorded_metric = "IC50"
recorded_value = 174

[[record]]
compound = "CC(C)C(N/C(=N/S(=O)(=O)c1ccccc1)N1CCC(c2ccccc2)C(c2ccc(Cl)cc2)=N1)C(N)=O (single isomer, unassigned) [Compound 28b]"
recorded_metric = "IC50"
recorded_value = 336


P = CC(C)(C)/C(N)=N/C(=N/S(=O)(=O)c1ccc(C(F)(F)F)cc1)N1CCC(c2ccccc2)C(c2ccc(F)cc2)=N1 (stereo not drawn) [Compound 10zb]
Q = N/C(=N\C(=N\S(=O)(=O)c1ccc(C(F)(F)F)cc1)N1CCC(c2ccccc2)C(c2ccc(Cl)cc2)=N1)c1ccccc1F (single isomer, unassigned) [Compound 10tE2]
R = N/C(=N\C(=N\S(=O)(=O)c1ccc(C(F)(F)F)cc1)N1CCC(c2ccccc2)C(c2ccc(Cl)cc2)=N1)c1cccs1 (stereo not drawn) [Compound 10w]
S = COc1ccc(S(=O)(=O)/N=C(/NC(C(N)=O)C(C)C)N2CCC(c3ccccc3)C(c3ccc(Cl)cc3)=N2)cc1 (single isomer, unassigned) [Compound 27b]
(Q) Which order do these items take when sorted by rising IC50? List them. # format: label list in the order the request specifies
(A) Q, S, R, P
(Q: 18 nM, S: 51 nM, R: 234 nM, P: 478 nM)
